- Protocol summary: Cytotoxicity against HEK293T cells assessed as inhibition of cell growth at 100 uM incubated for 24 hrs by CCK8 method relative to control
- Format: toxicity, cell-based, HEK-293T
- Condition notes: human
Can you tell me inhibition at 24 h, 100 µM for the items I'm about to list?
Please answer using the number first and the unit second.

What inhibition at 24 h, 100 µM value was documented for this compound, `Cc1nc(-c2ccc(CSSC3CCCC3)cc2)ncc1C(=O)N[C@@H](CCN)C(=O)N(C)[C@@H]1C(=O)N[C@@H](C)C(=O)N[C@H](C(=O)NCC#N)Cc2ccc(OCCN)c(c2)-c2cc1ccc2OCCN.O=C(O)C(F)(F)F.O=C(O)C(F)(F)F.O=C(O)C(F)(F)F.O=C(O)C(F)(F)F` ?
42.6%

Quick one: inhibition at 24 h, 100 µM of `CCCSSc1ccc(-c2ncc(C(=O)N[C@@H](CCN)C(=O)N(C)[C@@H]3C(=O)N[C@@H](C)C(=O)N[C@H](C(=O)NCC#N)Cc4ccc(OCCN)c(c4)-c4cc3ccc4OCCN)c(C)n2)cc1.O=C(O)C(F)(F)F.O=C(O)C(F)(F)F.O=C(O)C(F)(F)F.O=C(O)C(F)(F)F` ?
30.6%

Quick one: inhibition at 24 h, 100 µM for `Cc1nc(-c2ccc(SSC(C)(C)C)cc2)ncc1C(=O)N[C@@H](CCN)C(=O)N(C)[C@@H]1C(=O)N[C@@H](C)C(=O)N[C@H](C(=O)O)Cc2ccc(OCCN)c(c2)-c2cc1ccc2OCCN.O=C(O)C(F)(F)F.O=C(O)C(F)(F)F.O=C(O)C(F)(F)F.O=C(O)C(F)(F)F` ?
26.1%

Dear colleague, I am looking for the recorded inhibition at 24 h, 100 µM of the following compound: `Cc1nc(-c2ccc(SSC(C)(C)C)cc2)ncc1C(=O)N[C@@H](CCN)C(=O)N(C)[C@@H]1C(=O)N[C@@H](C)C(=O)N[C@H](C(=O)NCC#N)Cc2ccc(OCCN)c(c2)-c2cc1ccc2OCCN.O=C(O)C(F)(F)F.O=C(O)C(F)(F)F.O=C(O)C(F)(F)F.O=C(O)C(F)(F)F`
51.5%

# get_value(readout='inhibition at 24 h, 100 µM', item= `Cc1nc(-c2ccc(C(C)(C)C)cc2)ncc1C(=O)N[C@@H](CCN)C(=O)N(C)[C@@H]1C(=O)N[C@@H](C)C(=O)N[C@H](C(=O)NCC#N)Cc2ccc(OCCN)c(c2)-c2cc1ccc2OCCN.Cl.Cl.Cl.Cl` )
37.9%

Request the reported inhibition at 24 h, 100 µM associated with `CCCSSCc1ccc(-c2ncc(C(=O)N[C@@H](CCN)C(=O)N(C)[C@@H]3C(=O)N[C@@H](C)C(=O)N[C@H](C(=O)NCC#N)Cc4ccc(OCCN)c(c4)-c4cc3ccc4OCCN)c(C)n2)cc1.O=C(O)C(F)(F)F.O=C(O)C(F)(F)F.O=C(O)C(F)(F)F.O=C(O)C(F)(F)F`
29.9%

Bench note: what inhibition at 24 h, 100 µM did `Cc1nc(-c2ccc(CSSC(C)(C)C)cc2)ncc1C(=O)N[C@@H](CCN)C(=O)N(C)[C@@H]1C(=O)N[C@@H](C)C(=O)N[C@H](C(=O)NCC#N)Cc2ccc(OCCN)c(c2)-c2cc1ccc2OCCN.O=C(O)C(F)(F)F.O=C(O)C(F)(F)F.O=C(O)C(F)(F)F.O=C(O)C(F)(F)F` show?
43%

Which inhibition at 24 h, 100 µM is reported for this compound? `CCCCSSCc1ccc(-c2ncc(C(=O)N[C@@H](CCN)C(=O)N(C)[C@@H]3C(=O)N[C@@H](C)C(=O)N[C@H](C(=O)NCC#N)Cc4ccc(OCCN)c(c4)-c4cc3ccc4OCCN)c(C)n2)cc1.O=C(O)C(F)(F)F.O=C(O)C(F)(F)F.O=C(O)C(F)(F)F.O=C(O)C(F)(F)F`
41%
